# credit: patent US7501430B2

# system.name: mutant B-RAF (Homo sapiens, UniProt P15056, V600E)
# Construct: purchased Upstate (Charlottesville, Va.)
# Sequence (P15056 whole entry V600E): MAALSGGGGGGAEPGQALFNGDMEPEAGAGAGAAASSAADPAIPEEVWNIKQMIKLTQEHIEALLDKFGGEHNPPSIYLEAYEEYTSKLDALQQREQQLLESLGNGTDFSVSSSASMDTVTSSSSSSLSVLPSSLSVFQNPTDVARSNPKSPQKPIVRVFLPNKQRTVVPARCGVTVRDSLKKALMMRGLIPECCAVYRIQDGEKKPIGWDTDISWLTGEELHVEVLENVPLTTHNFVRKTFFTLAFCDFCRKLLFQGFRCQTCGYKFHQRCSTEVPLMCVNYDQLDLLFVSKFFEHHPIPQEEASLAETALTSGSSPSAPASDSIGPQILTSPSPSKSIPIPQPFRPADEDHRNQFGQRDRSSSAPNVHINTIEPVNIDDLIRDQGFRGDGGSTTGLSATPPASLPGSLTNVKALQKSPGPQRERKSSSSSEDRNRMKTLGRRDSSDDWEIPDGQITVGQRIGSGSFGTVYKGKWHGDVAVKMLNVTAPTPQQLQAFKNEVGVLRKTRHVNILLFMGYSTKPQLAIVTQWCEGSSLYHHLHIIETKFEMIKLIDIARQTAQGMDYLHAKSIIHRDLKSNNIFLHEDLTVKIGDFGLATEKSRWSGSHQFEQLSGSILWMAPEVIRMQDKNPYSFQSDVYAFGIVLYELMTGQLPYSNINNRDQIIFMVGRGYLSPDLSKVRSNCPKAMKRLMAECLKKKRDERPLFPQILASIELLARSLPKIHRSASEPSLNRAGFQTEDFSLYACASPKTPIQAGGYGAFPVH
# measurement.description: RAF biochemical assay (MEK-1 phosphorylation, anti-phospho MEK1/2 detection)
# measurement.setup: @ 10 uM; read-out: Mutant B-RAF % inhibition
outcome.measure: inhibition at 10 µM (%)

| smiles.repr | test.value |
| --- | --- |
| Cc1nc(S(=O)(=O)N2CCC[C@@H](Nc3nccc(-c4c(-c5ccc(F)cc5)nc5occn45)n3)C2)cn1C | 70 |
| COc1cccc(-c2nc3occn3c2-c2ccnc(N[C@@H]3CCCN(S(=O)(=O)c4ccc(Cl)cc4)C3)n2)c1 | 48 |
| O=C(NCc1ccc(F)cc1)N1CCC[C@@H](Nc2nccc(-c3c(-c4ccc(F)cc4)nc4occn34)n2)C1 | 36 |
| O=S(=O)(c1c(F)cccc1F)N1CCC[C@@H](Nc2nccc(-c3c(-c4ccc(F)cc4)nc4occn34)n2)C1 | 47 |
| Fc1ccc(-c2nc3occn3c2-c2ccnc(NC3CCNCC3)n2)c(Cl)c1 | 39 |
| Nc1c(Cl)c(Cl)nc(C(=O)N2CCC(Nc3nccc(-c4c(-c5ccc(F)cc5)nc5occn45)n3)CC2)c1Cl | 49 |
| COc1cccc(-c2nc3sccn3c2-c2ccnc(N[C@@H]3CCN(S(=O)(=O)c4ccc(Cl)cc4)C3)n2)c1 | 37 |
| CN(C)c1ccc(NC(=O)N2CCC(Nc3nccc(-c4c(-c5ccc(F)c(F)c5)nc5sccn45)n3)CC2)cc1 | 61 |

A: Cc1ccccc1-c1nc2occn2c1-c1ccnc(NC2CCN(S(C)(=O)=O)CC2)n1
B: CS(=O)(=O)N1CCC(Nc2nccc(-c3c(-c4ccc(F)cc4Cl)nc4occn34)n2)CC1
C: Fc1ccc(CN2CCC(Nc3nccc(-c4c(-c5ccc(F)cc5)nc5sccn45)n3)CC2)cc1
D: c1cc(-c2c(-c3ccc4c(c3)OCCO4)nc3sccn23)nc(N[C@@H]2CCCNC2)n1
# sort list by recorded inhibition at 10 µM, greatest to least Dear reader, please state the labels in the requested order.
B, A, D, C
(B: 73%, A: 45%, D: 29%, C: 14%)

---

# system.name: mutant B-RAF (Homo sapiens, UniProt P15056, V600E)
# Construct: purchased Upstate (Charlottesville, Va.)
# measurement.description: RAF biochemical assay (MEK-1 phosphorylation, anti-phospho MEK1/2 detection)
# measurement.setup: read-out: Mutant B-RAF IC50
outcome.measure: IC50 (nM)

| smiles.repr | unit | IC50 |
| --- | --- | --- |
| O=S(=O)(c1ccc(Cl)cc1)N1CCC[C@@H](Nc2nccc(-c3c(-c4ccc(Cl)c(O)c4)nc4sccn34)n2)C1 | nM | 11 |

A: C/C(=N\O)c1cccc(-c2nc3sccn3c2-c2ccnc(N[C@@H]3CCCN(S(=O)(=O)c4ccc(Cl)cc4)C3)n2)c1
B: O=S(=O)(c1ccc(O)cc1)N1CCC[C@@H](Nc2nccc(-c3c(-c4cccc(O)c4)nc4sccn34)n2)C1
C: CCCNC(=O)N1CCC(Nc2nccc(-c3c(-c4cccc(O)c4)nc4sccn34)n2)CC1
# sort list by recorded IC50, greatest to least Dear reader, please state the labels in the requested order.
C, A, B

---

# system.name: mutant B-RAF (Homo sapiens, UniProt P15056, V600E)
# Construct: purchased Upstate (Charlottesville, Va.)
# measurement.description: RAF biochemical assay (MEK-1 phosphorylation, anti-phospho MEK1/2 detection)
# measurement.setup: read-out: Mutant B-RAF IC50
outcome.measure: IC50 (nM)

Look over these answered cases.
| molecule | IC50 / nM |
| --- | --- |
| Nc1ccccc1-c1nc2sccn2c1-c1ccnc(N[C@@H]2CCCN(S(=O)(=O)c3ccc(Cl)cc3)C2)n1 [Example 132] | 444 |
| NS(=O)(=O)Oc1cccc(-c2nc3occn3c2-c2ccnc(N[C@@H]3CCCN(S(=O)(=O)c4ccc(Cl)cc4)C3)n2)c1 [Example 380] | 1590 |
| O=S(=O)(c1ccc(Cl)cc1)N1CCC(Nc2nccc(-c3c(-c4ccc(F)cc4)nc4occn34)n2)CC1 [Example 199] | 92 |

1: O=S(=O)(c1ccccc1)N1CCC(Nc2nccc(-c3c(-c4ccc(F)cc4)nc4occn34)n2)CC1 [Example 197]
2: COc1cc(-c2nc3sccn3c2-c2ccnc(NC3CCN(S(=O)(=O)C4CC4)CC3)n2)ccc1F [Example 349]
Which numeric IC50 is bigger, that of 1 or that of 2 ? Refer to your chosen entry by its label in the reply.
2
(2: 2600 nM, 1: 168 nM)
